Target: STING WT: His-TVMV-S-hSTING(155-341)-H232R (Homo sapiens, UniProt Q86WV6, H232R)
Construct: STING WT: His-TVMV-S-hSTING(155-341)-H232R
Sequence (Q86WV6 with tags, fused parts or gaps H232R): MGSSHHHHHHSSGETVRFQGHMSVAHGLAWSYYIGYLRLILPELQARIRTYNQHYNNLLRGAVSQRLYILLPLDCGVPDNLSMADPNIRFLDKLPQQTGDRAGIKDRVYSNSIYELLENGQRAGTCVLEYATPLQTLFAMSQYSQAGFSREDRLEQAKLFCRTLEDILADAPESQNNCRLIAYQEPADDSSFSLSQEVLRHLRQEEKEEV
Assay: STING HTRF binding assay (time resolved FRET competition), STING WT
Conditions: 20 nM His-tagged STING WT cytoplasmic domain, 200 nM fluorescein-labeled cGAMP analog probe, one hour; read-out: HTRF Binding Assays IC50 (μM) WT
Would you mind telling me the reported IC50 of each entry?

Ask: What does the data say about its IC50? Entry: NC(=O)c1cc([C@@H]2C[C@@H]3COP(=O)(S)O[C@H]4[C@@H](F)[C@H](n5cnc6c5ncn5ccnc65)O[C@@H]4COP(=O)(S)OC[C@H]32)ccn1 (some centres unmarked) [Example 19]
Result: 0.01 µM

Ask: Next compound: Nc1ncnc2c1ncn2[C@@H]1C[C@@H]2COP(=O)(S)O[C@H]3[C@@H](O)[C@H](n4cnc5c(=O)n6cc[nH]c6nc54)O[C@@H]3COP(=O)(S)OC[C@H]21 (single isomer, unassigned) [Example 5-3]
Result: > 100 µM

Ask: Next compound: NC(=O)c1cc([C@@H]2O[C@@H]3COP(=O)(S)OC[C@@H]4[C@@H](COP(=O)(S)O[C@@H]2[C@@H]3O)C[C@H]4n2cnc3c(N)ncnc32)ccn1 (single isomer, unassigned) [Example 20-1]
Result: > 100 µM

Ask: Next compound: NC(=O)c1cc([C@@H]2O[C@@H]3COP(=O)(S)OC[C@@H]4[C@@H](COP(=O)(S)O[C@@H]2[C@@H]3O)C[C@H]4n2cnc3c(N)ncnc32)ccn1 (single isomer, unassigned) [Example 20-4]
Result: > 100 µM

Ask: Next compound: Nc1ncnc2c1ncn2[C@@H]1C[C@@H]2COP(=O)(S)O[C@@H]3[C@H](F)[C@@H](COP(=O)(S)OC[C@H]21)O[C@H]3n1cnc2c1ncn1ccnc21 (single isomer, unassigned) [Example 8-2]
Result: 3.43 µM

Ask: Next compound: O=P1(S)OC[C@@H]2[C@@H](COP(=O)(S)O[C@H]3[C@@H](F)[C@H](n4cnc5c4ncn4ccnc54)O[C@@H]3CO1)C[C@H]2n1cnc2c(Cl)ncnc21 (single isomer, unassigned) [Example 18-3]
Result: > 100 µM

Ask: Next compound: Nc1ncnc2c1ncn2[C@@H]1C[C@@H]2COP(=O)(S)O[C@@H]3[C@H](F)[C@@H](COP(=O)(S)OC[C@H]21)O[C@H]3n1cnc2c(=O)n3cc[nH]c3nc21 (single isomer, unassigned) [Example 6-2]
Result: 0.13 µM

Ask: Next compound: NC(=O)c1cc([C@@H]2C[C@@H]3COP(=O)(S)O[C@H]4[C@@H](F)[C@H](n5cnc6c(N)ncnc65)O[C@@H]4COP(=O)(S)OC[C@H]32)ccn1 (single isomer, unassigned) [Example 10]
Result: 40.9 µM

====

Molecular target: STING AQ: His-TVMV-S-hSTING(155-341)-G230A-R293Q (Homo sapiens, UniProt Q86WV6, G230A/H232R/R293Q)
Construct: STING AQ: His-TVMV-S-hSTING(155-341)-G230A-R293Q
Sequence (Q86WV6 with tags, fused parts or gaps G230A/H232R/R293Q): as the sequence (Q86WV6 with tags, fused parts or gaps H232R) above, with G99A, R162Q counted along it
Experiment: STING HTRF binding assay (time resolved FRET competition), STING AQ
Conditions: 20 nM His-tagged STING AQ cytoplasmic domain, 40 nM fluorescein-labeled cGAMP analog probe, one hour; read-out: HTRF Binding Assays IC50 (μM) AQ
Endpoint Label: IC50 (µM)
Respond numerically; units are µM and should not be typed.

Ask: What does the data say about its IC50? Entry: Nc1ncnc2c1ncn2[C@@H]1C[C@@H]2COP(=O)(S)O[C@@H]3[C@H](F)[C@@H](COP(=O)(S)OC[C@H]21)O[C@H]3n1cnc2c(=O)n3cc[nH]c3nc21 (single isomer, unassigned) [Example 6-2]
Result: 0.01

Ask: Next molecule: Nc1ncnc2c1ncn2[C@@H]1O[C@@H]2COP(=O)(S)OC[C@@H]3[C@@H](COP(=O)(S)O[C@H]2[C@H]1F)C[C@H]3n1cnc2c(=O)n3cnnc3[nH]c21 (single isomer, unassigned) [Example 21-1]
Result: 0.004

====

Biological target: STING AQ: His-TVMV-S-hSTING(155-341)-G230A-R293Q (Homo sapiens, UniProt Q86WV6, G230A/H232R/R293Q)
Construct: STING AQ: His-TVMV-S-hSTING(155-341)-G230A-R293Q
Assay: STING HTRF binding assay (time resolved FRET competition), STING AQ
Details: 20 nM His-tagged STING AQ cytoplasmic domain, 40 nM fluorescein-labeled cGAMP analog probe, one hour; read-out: HTRF Binding Assays IC50 (μM) AQ
Would you mind telling me the reported IC50 of each entry?
Respond numerically; units are µM and should not be typed.

Ask: What does the data say about its IC50? Entry: Nc1ncnc2c1ncn2[C@@H]1C[C@@H]2COP(=O)(S)O[C@H]3[C@@H](O)[C@H](n4cnc5c(=O)n6cc[nH]c6nc54)O[C@@H]3COP(=O)(S)OC[C@H]21 (single isomer, unassigned) [Example 5-2]
Result: 11.8

Ask: Next molecule: O=P1(S)OC[C@@H]2[C@@H](COP(=O)(S)O[C@H]3[C@@H](F)[C@H](n4cnc5c4ncn4ccnc54)O[C@@H]3CO1)C[C@H]2n1cnc2c(Cl)ncnc21 (single isomer, unassigned) [Example 18-2]
Result: 35.7

Ask: Next molecule: Nc1ncnc2c1ncn2[C@@H]1C[C@@H]2COP(=O)(S)O[C@H]3[C@@H](O)[C@H](n4cnc5c(=O)n6cc[nH]c6nc54)O[C@@H]3COP(=O)(S)OC[C@H]21 (single isomer, unassigned) [Example 5-3]
Result: 5.73

Ask: Next molecule: Nc1ncnc2c1ncn2[C@@H]1C[C@@H]2COP(=O)(S)O[C@H]3[C@@H](O)[C@H](n4cnc5c(=O)n6cc[nH]c6nc54)O[C@@H]3COP(=O)(S)OC[C@H]21 (single isomer, unassigned) [Example 5-4]
Result: 0.11

====

Target: STING AQ: His-TVMV-S-hSTING(155-341)-G230A-R293Q (Homo sapiens, UniProt Q86WV6, G230A/H232R/R293Q)
Construct: STING AQ: His-TVMV-S-hSTING(155-341)-G230A-R293Q
Assay: STING HTRF binding assay (time resolved FRET competition), STING AQ
Details: 20 nM His-tagged STING AQ cytoplasmic domain, 40 nM fluorescein-labeled cGAMP analog probe, one hour; read-out: HTRF Binding Assays IC50 (μM) AQ
Endpoint Label: IC50 (µM)
Respond numerically; units are µM and should not be typed.

Ask: What does the data say about its IC50? Entry: Nc1ncnc2c1ncn2[C@@H]1O[C@@H]2COP(=O)(S)OC[C@@H]3[C@@H](COP(=O)(S)O[C@H]2[C@H]1F)C[C@H]3n1cnc2c(=O)[nH]cnc21 (single isomer, unassigned) [Example 22-3]
Result: 0.04

Ask: Next compound: Nc1ncnc2c1ncn2[C@@H]1O[C@@H]2COP(=O)(S)OC[C@@H]3[C@@H](COP(=O)(S)O[C@H]2[C@H]1F)C[C@H]3n1cnc2c(=O)n3nnnc3[nH]c21 (single isomer, unassigned)
Result: 0.07

Ask: Next compound: O=P1(S)OC[C@@H]2[C@@H](COP(=O)(S)O[C@H]3[C@@H](F)[C@H](n4cnc5c4ncn4ccnc54)O[C@@H]3CO1)C[C@H]2n1cnc2c(Cl)ncnc21 (single isomer, unassigned) [Example 18-3]
Result: 2.81

Ask: Next compound: NC(=O)c1cc([C@@H]2C[C@@H]3COP(=O)(S)O[C@H]4[C@@H](F)[C@H](n5cnc6c5ncn5ccnc65)O[C@@H]4COP(=O)(S)OC[C@H]32)ccn1 (some centres unmarked)
Result: 0.01

====

Would you mind telling me the reported IC50 of each entry?
Molecular target: STING AQ: His-TVMV-S-hSTING(155-341)-G230A-R293Q (Homo sapiens, UniProt Q86WV6, G230A/H232R/R293Q)
Construct: STING AQ: His-TVMV-S-hSTING(155-341)-G230A-R293Q
Test: STING HTRF binding assay (time resolved FRET competition), STING AQ
Conditions: 20 nM His-tagged STING AQ cytoplasmic domain, 40 nM fluorescein-labeled cGAMP analog probe, one hour; read-out: HTRF Binding Assays IC50 (μM) AQ
Experimental: A time resolved FRET-based competition binding assay was used to assess test article binding to STING WT and STING AQ. […] Fluorescence at 495 nm and 520 nm was measured using an EnVision microplate reader to quantify FRET between Tb-labeled anti-His antibody and fluorescein-labeled probe. […] Percent inhibition was determined for test compounds at 11 concentrations. […]
Respond numerically; units are µM and should not be typed.

Ask: What does the data say about its IC50? Entry: Nc1ncnc2c1ncn2[C@@H]1C[C@@H]2COP(=O)(S)O[C@H]3[C@@H](F)[C@H](n4cnc5c4ncn4ccnc54)O[C@@H]3COP(=O)(S)OC[C@H]21 (single isomer, unassigned) [Example 17-3]
Result: 0.11

Ask: Next compound: NC(=O)c1cc([C@@H]2C[C@@H]3COP(=O)(S)O[C@H]4[C@@H](F)[C@H](n5cnc6c(N)ncnc65)O[C@@H]4COP(=O)(S)OC[C@H]32)ccn1 (single isomer, unassigned) [Example 9]
Result: 0.02

Ask: Next compound: NC(=O)c1cc([C@@H]2C[C@@H]3COP(O)(=S)O[C@H]4[C@@H](F)[C@H](n5cnc6c(N)ncnc65)O[C@@H]4COP(=O)(O)OCC32)ccn1 (single isomer, unassigned) [Example 14]
Result: 7.78

Ask: Next compound: Nc1ncnc2c1ncn2[C@@H]1C[C@@H]2COP(=O)(S)O[C@@H]3[C@H](F)[C@@H](COP(=O)(S)OC[C@H]21)O[C@H]3n1cnc2c1ncn1ccnc21 (single isomer, unassigned) [Example 8-1]
Result: 3.41

Ask: Next compound: NC(=O)c1cc([C@@H]2O[C@@H]3COP(=O)(S)OC[C@@H]4[C@@H](COP(=O)(S)O[C@@H]2[C@@H]3O)C[C@H]4n2cnc3c(N)ncnc32)ccn1 (single isomer, unassigned) [Example 20-3]
Result: 0.01
